// reported EC50 for each item listed
Molecular target: hNPRA (Homo sapiens, UniProt P16066)
Sequence (P16066 33-1061): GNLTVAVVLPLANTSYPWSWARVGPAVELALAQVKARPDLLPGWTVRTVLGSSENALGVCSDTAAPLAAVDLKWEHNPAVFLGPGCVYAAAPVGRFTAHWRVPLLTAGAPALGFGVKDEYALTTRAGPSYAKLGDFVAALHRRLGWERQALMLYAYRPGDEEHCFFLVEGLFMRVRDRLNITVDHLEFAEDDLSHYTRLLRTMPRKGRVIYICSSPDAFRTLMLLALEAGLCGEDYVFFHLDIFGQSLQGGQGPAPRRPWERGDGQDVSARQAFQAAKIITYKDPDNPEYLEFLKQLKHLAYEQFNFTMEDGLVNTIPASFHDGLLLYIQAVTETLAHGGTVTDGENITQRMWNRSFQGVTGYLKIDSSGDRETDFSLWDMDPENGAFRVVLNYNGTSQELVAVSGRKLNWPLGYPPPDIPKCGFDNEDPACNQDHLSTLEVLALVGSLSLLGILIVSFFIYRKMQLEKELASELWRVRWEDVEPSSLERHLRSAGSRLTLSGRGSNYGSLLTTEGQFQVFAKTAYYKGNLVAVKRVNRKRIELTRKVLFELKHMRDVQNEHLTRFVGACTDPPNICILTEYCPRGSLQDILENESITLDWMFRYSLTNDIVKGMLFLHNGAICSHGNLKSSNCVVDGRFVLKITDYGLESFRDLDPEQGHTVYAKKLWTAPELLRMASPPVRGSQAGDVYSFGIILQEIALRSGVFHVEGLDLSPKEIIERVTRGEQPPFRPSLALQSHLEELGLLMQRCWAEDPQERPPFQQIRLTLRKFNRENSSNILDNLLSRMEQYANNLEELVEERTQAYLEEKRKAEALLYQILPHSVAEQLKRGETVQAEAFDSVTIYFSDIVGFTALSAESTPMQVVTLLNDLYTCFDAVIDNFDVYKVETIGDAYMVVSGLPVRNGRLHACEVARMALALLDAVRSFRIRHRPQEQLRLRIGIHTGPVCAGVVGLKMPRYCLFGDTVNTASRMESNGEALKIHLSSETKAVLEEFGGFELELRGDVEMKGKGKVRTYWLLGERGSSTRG
Assay: NPRA Functional Cell Assay (cGMP HTRF, NPRA HEK JumpIn stable cells)
Conditions: cGMP production, 1 hour at 37° C., 10-point dose response
Counter-ions that a name gives are not always drawn.

Give EC50 only, for CC(C)(C)[C@H]1CCc2nc3sc(C(=O)N[C@H](CCN4CCC(O)CC4)c4ccc(-c5cnc(O)c(C#N)c5)cc4)nc3cc2C1 (racemic) [Example 172, trifluoroacetate] , using hNPRA (Homo sapiens, UniProt P16066) data.
925 nM

State the measured EC50 (hNPRA (Homo sapiens, UniProt P16066)) of CC(C)(C)[C@H]1CCc2nc3sc(C(=O)N[C@H](CCN4CCC(O)CC4)c4ccc(-c5nc[nH]c5C#N)cc4)nc3cc2C1 (racemic)
1250 nM

Tell me EC50 of CC(C)(C)[C@H]1CCc2nc3sc(C(=O)N[C@H](CCN[C@H]4CCCC(F)(F)[C@@H]4O)c4cccc(NS(C)(=O)=O)c4)cc3cc2C1 (racemic) when tested on hNPRA (Homo sapiens, UniProt P16066).
1970 nM

====

Recorded EC50 values for a group of molecules are listed next.
Target: hNPRA (Homo sapiens, UniProt P16066)
Sequence (P16066 33-1061): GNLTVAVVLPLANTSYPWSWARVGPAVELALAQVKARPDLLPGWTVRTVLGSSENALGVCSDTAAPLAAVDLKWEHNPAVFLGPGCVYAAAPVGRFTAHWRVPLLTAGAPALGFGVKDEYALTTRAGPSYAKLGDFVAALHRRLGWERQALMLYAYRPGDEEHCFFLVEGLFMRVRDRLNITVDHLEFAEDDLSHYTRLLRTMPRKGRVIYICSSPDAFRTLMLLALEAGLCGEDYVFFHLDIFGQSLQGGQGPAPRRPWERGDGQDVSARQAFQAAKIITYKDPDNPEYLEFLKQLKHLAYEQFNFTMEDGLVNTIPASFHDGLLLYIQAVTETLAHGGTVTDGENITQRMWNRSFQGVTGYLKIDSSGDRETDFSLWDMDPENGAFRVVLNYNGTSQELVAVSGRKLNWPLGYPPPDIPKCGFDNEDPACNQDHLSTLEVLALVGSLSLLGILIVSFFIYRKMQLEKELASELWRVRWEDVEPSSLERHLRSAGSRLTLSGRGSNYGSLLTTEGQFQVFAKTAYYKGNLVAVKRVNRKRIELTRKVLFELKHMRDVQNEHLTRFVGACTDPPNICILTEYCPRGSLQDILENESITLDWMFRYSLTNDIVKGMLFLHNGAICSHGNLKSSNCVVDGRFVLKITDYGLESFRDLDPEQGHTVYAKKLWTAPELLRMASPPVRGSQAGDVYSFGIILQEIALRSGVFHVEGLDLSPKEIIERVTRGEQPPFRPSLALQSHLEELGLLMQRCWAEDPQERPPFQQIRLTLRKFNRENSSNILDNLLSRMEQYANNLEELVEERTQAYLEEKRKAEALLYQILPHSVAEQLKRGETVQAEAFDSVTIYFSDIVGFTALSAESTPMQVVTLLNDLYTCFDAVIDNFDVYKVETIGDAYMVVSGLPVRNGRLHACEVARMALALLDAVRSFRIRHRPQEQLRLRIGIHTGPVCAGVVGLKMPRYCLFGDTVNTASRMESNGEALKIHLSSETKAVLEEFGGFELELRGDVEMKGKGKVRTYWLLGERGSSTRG
Experiment: NPRA Functional Cell Assay (cGMP HTRF, NPRA HEK JumpIn stable cells)
Conditions: cGMP production, 1 hour at 37° C., 10-point dose response
Structures can show the parent of a compound that is named as a salt.
Numeric only. Scale: nM

Use the examples below as a reference point.
Specify reported EC50 for the molecule shown: CN(C)S(=O)(=O)Nc1cccc([C@@H](CCN2CCC(O)CC2)NC(=O)c2nc3cc4c(nc3s2)CC[C@H](C(C)(C)C)C4)c1 (mixture of isomers) [Example 216, formate]
1980

Give me measured EC50, please, for this molecule: CC(C)(C)[C@H]1CCc2nc3sc(C(=O)N[C@H](CCN4CCCC(O)C4)c4cccc(NS(C)(=O)=O)c4)cc3cc2C1 (mixture of isomers)
790

***
Please look at this molecule and report its EC50: CN(C)CC[C@@H](NC(=O)c1cc2cc3c(nc2s1)CC[C@H](C(C)(C)C)C3)c1ccc(-c2ccc(=O)[nH]c2)cc1 (racemic)
218
